Biological target: human α7 nAChR (Homo sapiens, UniProt P36544)
Construct: expressed in transfected cells; host or cells: GH4C1 (rat pituitary) cell line, stably transfected
Sequence (P36544 23-502): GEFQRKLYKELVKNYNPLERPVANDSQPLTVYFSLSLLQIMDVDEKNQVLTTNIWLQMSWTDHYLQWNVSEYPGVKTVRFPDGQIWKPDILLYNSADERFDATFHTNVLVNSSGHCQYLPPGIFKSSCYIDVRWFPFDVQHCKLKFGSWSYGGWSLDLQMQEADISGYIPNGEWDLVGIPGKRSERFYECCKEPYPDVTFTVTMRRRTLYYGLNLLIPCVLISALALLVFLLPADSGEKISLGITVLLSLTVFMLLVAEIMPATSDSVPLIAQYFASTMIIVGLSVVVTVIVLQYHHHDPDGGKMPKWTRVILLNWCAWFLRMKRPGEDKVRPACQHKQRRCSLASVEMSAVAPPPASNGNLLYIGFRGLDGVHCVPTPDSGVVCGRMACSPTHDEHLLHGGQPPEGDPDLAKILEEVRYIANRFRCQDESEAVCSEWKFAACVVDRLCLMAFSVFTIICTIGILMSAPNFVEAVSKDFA
Experiment: cell-based calcium flux assay (FLIPR) for PAM activity, nicotine-evoked response
Conditions: GH4C1 cell line stably transfected with human α7 nAChR; potentiation of nicotine calcium flux; read-out: pEC50 (converted)
Measured Quantity: EC50
Express the reported value numerically, then name its unit.

The following compounds have reported results that may help.
CC(F)(F)c1cc(NCc2cnc3[nH]c(C(F)(F)F)cc3c2)ncn1	1000 nM
[2H]C([2H])(Nc1cc(C(C)(F)F)ncn1)c1cnc2[nH]c(C(F)(F)F)cc2c1	1260 nM
[2H]C([2H])(Nc1cc(C(C)(C)F)ncn1)c1cnc2[nH]c(C(F)(F)F)cc2c1	631 nM

Please examine the following record next.
The compound listed as CC(C)(F)c1cc(NCc2cnc3[nH]c(C(F)(F)F)cc3c2)ncn1 has a reported EC50 of 398 nM
